Provenance of the data: PubChem BioAssay (NCI)

method: NCI Yeast Anticancer Drug Screen. Data for the mlh1 strain (AID 171);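 further: 0% = growth of vehicle-treated control cultures of the same strain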
test context: S. cerevisiae mlh1 strain growth inhibition; at 33.0 µM; stronger effect = higher value
Compounds without any hit were thinned out: in the full panel of roughly 79,000, 15% have a hit.
measurement kind: growth inhibition (%)
One number for each entry, in %.

{"columns": ["mol smiles", "obs value"],
 "data": [
  ["O=C(O)CNC(=S)Nc1ccccc1", 53],
  ["COC1=C(OC)C(=O)C(Sc2ccc3ccccc3c2)=CC1=O", 95]
]}

Turning now to a further record.
get_value(item= Cc1c(-c2ccccn2)ccc2ccccc12 , readout=growth inhibition) returns 0

====

method: NCI Yeast Anticancer Drug Screen. Data for the wt1 strain (AID 149);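 further: 0% = growth of vehicle-treated wt1 cultures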
test context: S. cerevisiae wt1 strain (SPY 50644) growth inhibition; at 33.0 µM
The panel holds about 79,000 compounds, 15% with a hit somewhere; the sample as a whole holds those more often. The source made the active and inactive calls. No stated cut-off is given here; in the data, active means growth inhibition above about 70%; inactive means the rest.
Result category, one only: YES = active, NO = inactive

{"columns": ["molecule", "class"],
 "data": [
  ["O=C(NNc1ccccc1)C(O)C(O)C(O)C(O)C(O)CO (configuration not stated)", "NO"]
]}

Inquiry: Record lookup: outcome of this test for CC(=O)Nc1ccc2c(c1)Cc1cc(N=C3C=CC(=O)O3)ccc1-2 ?
Reply text: YES

Inquiry: Which result was noted for this molecule in the test: Oc1ccc(O)c(Cc2ccccc2)c1
Reply text: NO

Inquiry: What did this assay record as the result for CCOC(=O)COc1c(OC)cc(C2C3=C(COC3=O)Oc3cc4c(cc32)OCO4)cc1OC (configuration not stated) ?
Reply text: NO

Inquiry: Please indicate how the test categorized COc1ccc(/C=C/c2sc3ccccc3[n+]2CCCCI)cc1OC .
Reply text: NO

Inquiry: For CCOc1c(N=Nc2ccccc2OC)c(C)nn1C(=S)S , which call appears in the assay record?
Reply text: NO

Inquiry: What call does the record list for CC(C)OC(=O)c1ccc(CCc2cc(O)c(Br)cc2O)cc1 ?
Reply text: NO

Inquiry: Hi, do you know how CN(C)[C@@H]1C(=O)C(C(N)=O)=C(O)[C@@]2(O)C(=O)C3=C(O)c4c(O)cccc4C[C@H]3C[C@@H]12 came out in this test?
Reply text: YES

Inquiry: Hi, do you know how CC(=O)OC1CC2C(C)(C)C(=O)C=C[C@]2(C)C2CCC3(C)C(=CCC3[C@H](CO)C[C@H](O)C(=O)C(C)(C)O)[C@]12C (some centres not stated) came out in this test?
Reply text: NO

Inquiry: Called result for Cc1sc2ccc3ccccc3c2[n+]1C
Reply text: NO

Inquiry: Which outcome was entered for the molecule CC1SC2(C(=O)Nc3ccc(Cl)cc32)N(c2ccc(Cl)cc2)C1=O (configuration not stated) in this test?
Reply text: NO

Inquiry: Just curious, what result did O=P(NC1CCCCC1)(OCc1ccccc1)OCc1ccccc1 get here?
Reply text: NO

====

method: NCI Yeast Anticancer Drug Screen. Data for the rad14 strain (AID 159);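 further: 0% = growth of vehicle-treated control cultures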
test context: S. cerevisiae rad14 strain growth inhibition; at 1.2 µM; stronger effect = higher value
This is part of a sample that, as a whole, favours compounds with a hit. Of some 79,000 tested, about 15% had one in any assay. Calls of active or inactive are those of the source. No stated cut-off is given here; in the data, active means growth inhibition above about 70%; inactive means the rest.
measurement kind: growth inhibition

// known answers, use as guide
{"columns": ["compound", "obs value"],
 "data": [
  ["Oc1ccc(O)c(Cc2ccccc2)c1", "17% (inactive)"],
  ["C#CCN(Cc1ccc2nc(N)[nH]c(=O)c2c1)c1ccc(C(=O)NC(CCC(=O)O)C(=O)O)cc1 (stereo unspecified)", "-2% (inactive)"]
]}

Quick batch: growth inhibition for everything below.
1. S=c1[nH]c2cc3ccccc3cc2[nH]1
2. O=[n+]1c2ccccc2n([O-])c2cc(Br)ccc21
3. C[C@@](O)(/C=C/[C@H]1CC=CC(=O)O1)[C@@H](C[C@@H](O)\C=C/C=C\C=C\CO)OP(=O)(O)O
4. CN(C)CCCCN1c2ccccc2Sc2ccc(N=[N+]=[N-])cc21

Reply text:
-14% (inactive)
36% (inactive)
9% (inactive)
0% (inactive)

====

method: NCI Yeast Anticancer Drug Screen. Data for the rad50 strain (AID 155);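 further: 0% = growth of vehicle-only cultures of the same strain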
test context: S. cerevisiae rad50 strain growth inhibition; at 100.0 µM; stronger effect = higher value
About 79,000 compounds went through this panel and 15% of them were active in at least one assay; those are over-represented in the sample as a whole. The source made the active and inactive calls. No stated cut-off is given here; in the data, active means growth inhibition above about 70%; inactive means the rest.
measurement kind: growth inhibition

Solved entries:
{"columns": ["compound", "growth inhibition"],
 "data": [
  ["CCCCCCOC(=O)NCCOC(=O)Nc1ccccc1", "7% (inactive)"],
  ["C[CH2][Sn]([CH2]C)([O]C(=O)C(N)Cc1ccccc1)[O]C(=O)C(N)Cc1ccccc1 (centres undefined)", "54% (inactive)"],
  ["O=C(NO)Nc1cc(Cl)cc(Cl)c1", "96% (active)"],
  ["NC(=O)C(=O)NNc1ccccc1", "97% (active)"],
  ["O=C(O)c1ccc(N2C(=O)C=CC2=O)cc1", "80% (active)"]
]}

Items follow; give growth inhibition for each.
1. N#CNC(N)=Nc1cc2ccccc2c2ccccc12
2. Cc1cc(C)nc(NS(=O)(=O)c2ccc(Nc3c4ccccc4nc4c(C(=O)NCCO)cccc34)cc2)n1
3. Clc1ccc2c(c1)N(CCCN1CCCC13CCCCC3)c1ccccc1S2
4. CCOC(=O)C(C(=O)OCC)=P(c1ccccc1)(c1ccccc1)c1ccccc1
5. CCCCCCC(O)CNCc1ccnc2ccc(OC)cc12 (centres undefined)
6. Cc1nc2c(Br)cc(Br)cc2c(=O)n1-c1ccccc1NC1OCC(O)C(O)C1O (centres undefined)
7. COc1ccc(N=CN(C)C)c(C)c1

Reply text:
90% (active)
68% (inactive)
2% (inactive)
96% (active)
54% (inactive)
96% (active)
95% (active)

Please look at the items below and tell me growth inhibition for each one, in order.
1. O=C1C=C(N2CCN(c3ccccn3)CC2)C(=O)c2c(O)ccc(O)c21
2. NC(N)=NS(=O)(=O)c1ccc(Nc2c3ccccc3nc3c(C(=O)NCCO)cccc23)cc1
3. COc1oc(C(=O)NC2CCCCC2)c(-c2ccc(Cl)cc2)c1S(=O)(=O)c1ccccc1
4. Cc1cc(NCCCCCCCCNc2cc(C)nc3cc(N)ccc23)c2ccc(N)cc2n1
5. CCOC(=O)c1[nH]n(-c2ccccc2)c(=O)c1C=NC(=S)C(N)=S
6. c1ccc2c(OCC3CO3)cccc2c1 (centres undefined)

Reply text:
1. 55% (inactive)
2. 73% (active)
3. 78% (active)
4. 96% (active)
5. 97% (active)
6. 95% (active)

Provide growth inhibition for all items below, preserving their order.
1. O=C(O)c1ccccc1/C=N/N=C1c2ccccc2-c2ccccc21
2. OC1(c2ccccc2)CCCc2ccc(Cl)cc21 (centres undefined)
3. CC(C)CN(CC(C)C)C(=O)c1ccc(Cl)c(Cl)c1
4. CCOC(=O)C#Cc1ccc([N+](=O)[O-])cc1
5. COc1cc2ccnc(-c3c4ccccc4c(N)c4c(OC)c(OC)ccc34)c2cc1OC
6. CCCOC(=O)C(F)C(Br)C(=O)OCCC (centres undefined)
7. CCCCNC1CCC2(SCCS2)c2[nH]c3ccccc3c21 (centres undefined)
8. Cc1nc(Nc2ccccc2[N+](=O)[O-])sc1C(=O)CC(=O)C(=O)Nc1c(C(C)C)cccc1C(C)C

Reply text:
1. 13% (inactive)
2. 99% (active)
3. 99% (active)
4. 46% (inactive)
5. 94% (active)
6. 99% (active)
7. 6% (inactive)
8. 3% (inactive)

Could you tell me growth inhibition for each of these compounds? They are listed below.
1. CC1CC[C@]2(C(=O)O)CCC3(C)C(=CC(=O)C4[C@@]5(C)CCC(=O)C(C)(C)C5CC[C@]43C)[C@@H]2[C@H]1C (some centres undefined)
2. COc1ccc(C2C3=C(COC3=O)OC(C)(C)Oc3cc4c(cc32)OCO4)cc1OC (centres undefined)
3. CCOc1ccccc1N=Cc1c2ccccc2cc2ccccc12

Reply text:
["97% (active)", "90% (active)", "97% (active)"]

Could I get growth inhibition for every one of these entries?
1. CCCCN(CCCC)CCC(O)c1cc2c(Cl)cc(Cl)cc2c2cc(C(F)(F)F)ccc12 (centres undefined)
2. O=C(CSC(=S)N1CCCCC1)Nc1nc2c(s1)CCCC2
3. CN(C)CCOC1(Cc2ccc(F)cc2)CCC(C(C)(C)C)CC1 (centres undefined)
4. O=C(Nc1ccc(Cl)cc1)Nc1nnc2nc(C(C(=O)c3cccc([N+](=O)[O-])c3Cl)c3nc4nnc(NC(=O)Nc5ccc(Cl)cc5)n4[nH]c3=O)c(=O)[nH]n12

Reply text:
["95% (active)", "83% (active)", "97% (active)", "31% (inactive)"]

Report growth inhibition for each item below.
1. COC(=O)/C=C(/CC(=O)OC)C(=O)OC
2. CN(C)/C=C/c1nnc([N+](=O)[O-])s1
3. O=[N+]([O-])c1cccc2nc3ccccc3c(NCCCn3ccnc3[N+](=O)[O-])c12
4. O=C(NNc1ccccc1)c1ccc(Cl)c(Cl)c1
5. O=C(O)Cc1cc(F)ccc1C(=O)O
6. COc1cccc2c1C(=O)c1c(O)c3c(c(O)c1C2=O)C[C@@](O)(C(C)=O)C[C@@H]3OC1CC(OC(C)=O)C(OC(C)=O)C(C)O1 (some centres undefined)
7. CCOC1Oc2ccccc2-c2nc(N)ncc21 (centres undefined)
8. CC(=O)Nc1ccc2c(c1)-c1ccccc1C2=O

Reply text:
1: -4% (inactive); 2: 97% (active); 3: 96% (active); 4: 61% (inactive); 5: 29% (inactive); 6: 47% (inactive); 7: -33% (inactive); 8: 95% (active)

Provide growth inhibition for all items below, preserving their order.
1. Cc1ccc(NC(=O)/C(CC2N=c3c(ccc4c(O)c5ccccc5c(O)c34)=NC2O)=N/NC(C)(C)C)cc1 (centres undefined)
2. CC(C)(C)c1ccc(NS(=O)(=O)c2ccc(N)cc2)cc1
3. O=[N+]([O-])c1cc[n+]([O-])cc1

Reply text:
1. 65% (inactive)
2. 37% (inactive)
3. 99% (active)
